List of Activity values.
Tested on: DC3F/ADR
Assay: Binding affinity to p-glycoprotein in chinese hamster DC3F/ADR cells assessed as increase in basal activity at 5 uM after 30 mins by spectrophotometric method relative to control
Format: cell-based
Settings: Cricetulus griseus

MOLECULAR_STRING: CN1C(=O)C(=CNc2ccccc2C(=O)O)C(=O)N(C)C1=O
SUBJECT_OF_TEST: DC3F/ADR
Activity: 100%

MOLECULAR_STRING: CN1C(=O)C(=CNCc2ccccn2)C(=O)N(C)C1=O
SUBJECT_OF_TEST: DC3F/ADR
Activity: 98%

MOLECULAR_STRING: CN1C(=O)C(=CNc2cccc(N)n2)C(=O)N(C)C1=O
SUBJECT_OF_TEST: DC3F/ADR
Activity: 92%

MOLECULAR_STRING: CN1C(=O)C(=C(/C=C/c2ccccc2)NNC(/C=C/c2ccccc2)=C2C(=O)N(C)C(=O)N(C)C2=O)C(=O)N(C)C1=O
SUBJECT_OF_TEST: DC3F/ADR
Activity: 200%

MOLECULAR_STRING: CN1C(=O)C(=C(/C=C/c2ccccc2)Nc2ccccc2N)C(=O)N(C)C1=O
SUBJECT_OF_TEST: DC3F/ADR
Activity: 133%

MOLECULAR_STRING: CN1C(=O)C(=C(NNC(=C2C(=O)N(C)C(=O)N(C)C2=O)c2ccccc2)c2ccccc2)C(=O)N(C)C1=O
SUBJECT_OF_TEST: DC3F/ADR
Activity: 166%

MOLECULAR_STRING: CN1C(=O)C(=CNNc2ccccc2)C(=O)N(C)C1=O
SUBJECT_OF_TEST: DC3F/ADR
Activity: 168%

MOLECULAR_STRING: CN1C(=O)C(=CNCCNC=C2C(=O)N(C)C(=O)N(C)C2=O)C(=O)N(C)C1=O
SUBJECT_OF_TEST: DC3F/ADR
Activity: 134%

MOLECULAR_STRING: CN1C(=O)C(=C(/C=C/c2ccccc2)NCCNC(/C=C/c2ccccc2)=C2C(=O)N(C)C(=O)N(C)C2=O)C(=O)N(C)C1=O
SUBJECT_OF_TEST: DC3F/ADR
Activity: 66%

Entry source: ChEMBL document CHEMBL1154883
